Tested on: Escherichia coli TOP10
Measurement Description: shrunken log2 fold change of peptide-encoding DNA abundance (4.5 h post-induction vs induction); higher = less antimicrobial activity (less host growth inhibition)
Test Parameters: time post-induction: 4.5 h; library: site-saturation at positions 5, 18, 19, 20
Quantity: shrunken log2 fold change
Reply with just the number.

{"columns": ["Residue Codes", "Target System", "shrunken log2 fold change"],
 "data": [
  ["RRIRVRPPRLPRPRPRPGGRPRP", "Escherichia coli TOP10", 0.317],
  ["RRIRRRPPRLPRPRPRPKVYPRP", "Escherichia coli TOP10", -0.0919],
  ["RRIRHRPPRLPRPRPRPVRIPRP", "Escherichia coli TOP10", 0.0159],
  ["RRIRWRPPRLPRPRPRPMCVPRP", "Escherichia coli TOP10", 0.0501],
  ["RRIRARPPRLPRPRPRPFYCPRP", "Escherichia coli TOP10", -0.402],
  ["RRIRNRPPRLPRPRPRPMMRPRP", "Escherichia coli TOP10", 0.0611],
  ["RRIRLRPPRLPRPRPRPWHIPRP", "Escherichia coli TOP10", 0.0292],
  ["RRIRCRPPRLPRPRPRPTEVPRP", "Escherichia coli TOP10", -0.135]
]}

Request: Recorded shrunken log2 fold change for "RRIRGRPPRLPRPRPRPMFYPRP" , please?
Result: 1.07

Request: Name the reported shrunken log2 fold change value associated with the sequence "RRIRLRPPRLPRPRPRPDYIPRP"
Result: -0.161

Request: Item "RRIRWRPPRLPRPRPRPAWRPRP" has what recorded shrunken log2 fold change?
Result: 0.642

Request: Quick check: shrunken log2 fold change of "RRIRGRPPRLPRPRPRPSAHPRP" ?
Result: 1.12

Request: Endpoint output: shrunken log2 fold change of "RRIRYRPPRLPRPRPRPEWYPRP" . Value?
Result: -0.00146

Request: Dear colleague, I am looking for the recorded shrunken log2 fold change of the following sequence: "RRIRERPPRLPRPRPRPMLNPRP"
Result: -0.106

Request: Name the recorded shrunken log2 fold change for "RRIRFRPPRLPRPRPRPPTGPRP" .
Result: 0.217

###

System: Escherichia coli TOP10
Measurement Description: shrunken log2 fold change of peptide-encoding DNA abundance (4.5 h post-induction vs induction); higher = less antimicrobial activity (less host growth inhibition)
Test Parameters: time post-induction: 4.5 h; library: site-saturation at positions 5, 18, 19, 20
Listing of recorded shrunken log2 fold change by entry.
Form rule: numeric answer, no unit written next to it.

{"columns": ["Residue Codes", "shrunken log2 fold change"],
 "data": [
  ["RRIRVRPPRLPRPRPRPREEPRP", 0.493],
  ["RRIRARPPRLPRPRPRPCKWPRP", 0.146],
  ["RRIRMRPPRLPRPRPRPACLPRP", 0.236]
]}

Request: Could you share which shrunken log2 fold change value was measured for "RRIRHRPPRLPRPRPRPKNKPRP" ?
Result: -0.521

Request: Can you look up the measured shrunken log2 fold change of "RRIRKRPPRLPRPRPRPYWFPRP" for me?
Result: 0.00102

Request: Report shrunken log2 fold change for "RRIRGRPPRLPRPRPRPIRKPRP" please.
Result: 0.124

Request: So what does the record say about shrunken log2 fold change for "RRIRPRPPRLPRPRPRPENSPRP" ?
Result: -0.0155

Request: Fill in: shrunken log2 fold change of "RRIRVRPPRLPRPRPRPWGAPRP" is ___
Result: 0.21

Request: Which measured shrunken log2 fold change value corresponds to "RRIRMRPPRLPRPRPRPNFTPRP" ?
Result: -0.099

Request: Consider the sequence shown here: "RRIRKRPPRLPRPRPRPNDAPRP" What is its recorded shrunken log2 fold change?
Result: 0.0832

Request: Returns the measured shrunken log2 fold change for the input sequence. Input: "RRIRMRPPRLPRPRPRPIGKPRP"
Result: 0.208

Request: Name the reported shrunken log2 fold change value associated with the sequence "RRIRERPPRLPRPRPRPQLVPRP"
Result: 0.0441

Request: Consider the sequence "RRIRTRPPRLPRPRPRPHNSPRP" and give its measured shrunken log2 fold change.
Result: -1.22

Request: # lookup: shrunken log2 fold change of "RRIRSRPPRLPRPRPRPAMHPRP"
Result: -0.0199

Request: GET /values?readout=shrunken log2 fold change&item= "RRIRTRPPRLPRPRPRPAIYPRP"
Result: -0.372

###

System: Escherichia coli TOP10
Measurement Description: shrunken log2 fold change of peptide-encoding DNA abundance (4.5 h post-induction vs induction); higher = less antimicrobial activity (less host growth inhibition)
Test Parameters: time post-induction: 4.5 h; library: site-saturation at positions 5, 18, 19, 20
# if value of shrunken log2 fold change reaches 0.0009, tag Criterion met; if it stays below, tag Criterion not met

{"columns": ["Residue Codes", "Group Label"],
 "data": [
  ["RRIRPRPPRLPRPRPRPMGWPRP", "Criterion met"],
  ["RRIRGRPPRLPRPRPRPAWQPRP", "Criterion met"],
  ["RRIRDRPPRLPRPRPRPAKDPRP", "Criterion not met"],
  ["RRIRDRPPRLPRPRPRPCHNPRP", "Criterion not met"],
  ["RRIRIRPPRLPRPRPRPMPVPRP", "Criterion not met"],
  ["RRIRPRPPRLPRPRPRPTDIPRP", "Criterion not met"],
  ["RRIRWRPPRLPRPRPRPQDNPRP", "Criterion not met"],
  ["RRIRWRPPRLPRPRPRPGFQPRP", "Criterion met"],
  ["RRIRTRPPRLPRPRPRPRTDPRP", "Criterion not met"],
  ["RRIRDRPPRLPRPRPRPCIKPRP", "Criterion met"]
]}

Request: In plain terms: is recorded shrunken log2 fold change at least 0.0009 for "RRIRHRPPRLPRPRPRPDLIPRP" ?
Result: Criterion not met

Request: In plain terms: is recorded shrunken log2 fold change at least 0.0009 for "RRIRSRPPRLPRPRPRPATVPRP" ?
Result: Criterion not met

###

Test system: Escherichia coli TOP10
Measurement Description: shrunken log2 fold change of peptide-encoding DNA abundance (4.5 h post-induction vs induction); higher = less antimicrobial activity (less host growth inhibition)
Test Parameters: time post-induction: 4.5 h; library: site-saturation at positions 5, 18, 19, 20
Quantity: shrunken log2 fold change
Provide a numeric answer; units are not to be included.

Previously resolved entries follow.
{"columns": ["Residue Codes", "Target System", "shrunken log2 fold change"],
 "data": [
  ["RRIRCRPPRLPRPRPRPFLNPRP", "Escherichia coli TOP10", -0.602],
  ["RRIRARPPRLPRPRPRPFFFPRP", "Escherichia coli TOP10", 0.419],
  ["RRIRRRPPRLPRPRPRPIDNPRP", "Escherichia coli TOP10", -0.349],
  ["RRIRRRPPRLPRPRPRPWVQPRP", "Escherichia coli TOP10", 0.25]
]}

Request: Field: shrunken log2 fold change (Escherichia coli TOP10). Entry: "RRIRPRPPRLPRPRPRPSWEPRP"
Result: 0.245

Request: Give Escherichia coli TOP10 shrunken log2 fold change for "RRIRDRPPRLPRPRPRPWARPRP"
Result: -0.0626

Request: Fill in the recorded shrunken log2 fold change for this sequence, with Escherichia coli TOP10 as test system: "RRIRDRPPRLPRPRPRPYPMPRP"
Result: -0.348

Request: Fill in the recorded shrunken log2 fold change for this sequence, with Escherichia coli TOP10 as test system: "RRIRTRPPRLPRPRPRPWVCPRP"
Result: -1.58

###

The following sequences are shown together with reported shrunken log2 fold change values.
Test system: Escherichia coli TOP10
Measurement Description: shrunken log2 fold change of peptide-encoding DNA abundance (4.5 h post-induction vs induction); higher = less antimicrobial activity (less host growth inhibition)
Test Parameters: time post-induction: 4.5 h; library: site-saturation at positions 5, 18, 19, 20
// return a plain number; no unit text

Here is how some sequences turned out for shrunken log2 fold change.
{"columns": ["Residue Codes", "Quantity", "Measured Value"],
 "data": [
  ["RRIRVRPPRLPRPRPRPCAIPRP", "shrunken log2 fold change", -0.379],
  ["RRIRKRPPRLPRPRPRPVMAPRP", "shrunken log2 fold change", 0.588],
  ["RRIRNRPPRLPRPRPRPSTNPRP", "shrunken log2 fold change", -0.337]
]}

Let's switch to this sequence now.
Request: For "RRIRCRPPRLPRPRPRPVRHPRP" , what is its reported shrunken log2 fold change?
Result: 0.403

###

Tested on: Escherichia coli TOP10;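 further: peptides expressed intracellularly from a pBAD plasmid library in pooled LB shake-flask culture, induced with 0.3% L-arabinose, DNA abundance read by NGS, three biological replicates, DESeq2 with apeglm shrinkage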
Measurement Description: shrunken log2 fold change of peptide-encoding DNA abundance (4.5 h post-induction vs induction); higher = less antimicrobial activity (less host growth inhibition)
Test Parameters: time post-induction: 4.5 h; library: site-saturation at positions 5, 18, 19, 20
Decision: shrunken log2 fold change >= -0.05 yields true, all other cases yield false.

{"columns": ["Residue Codes", "Target System", "Group Label"],
 "data": [
  ["RRIRCRPPRLPRPRPRPFFQPRP", "Escherichia coli TOP10", "false"],
  ["RRIRFRPPRLPRPRPRPEKKPRP", "Escherichia coli TOP10", "true"],
  ["RRIRPRPPRLPRPRPRPPIEPRP", "Escherichia coli TOP10", "false"],
  ["RRIRYRPPRLPRPRPRPHKSPRP", "Escherichia coli TOP10", "false"],
  ["RRIRARPPRLPRPRPRPCYEPRP", "Escherichia coli TOP10", "false"],
  ["RRIRMRPPRLPRPRPRPVRKPRP", "Escherichia coli TOP10", "true"]
]}

Request: Answer whether shrunken log2 fold change of "RRIRQRPPRLPRPRPRPMDMPRP" is greater than or equal to -0.05.
Result: false

Request: Could you verify whether the entry "RRIRERPPRLPRPRPRPQMYPRP" shows shrunken log2 fold change of no less than -0.05?
Result: false
